assay: Particle size measurement (dynamic light scattering) and visual solubility in aqueous solutions; conditions: 2 mg net mass/ml in 28 mM L-Histidine buffer, pH 5.9 to 6.4; also: unit not given here
Marks after values point to notes of the source that are not given here.
value_type: particle size, HIST

substance | value_type | result
Ac-LRLLHAALALAAHLLRLL-NH2 [Peptide 8, Ac-LRLLHAALALAAHLLRLL-NH2] | particle size, HIST | INS.
Ac-LRLLHALLALLAHLLRLL-NH2 [Peptide 6, Ac-LRLLHALLALLAHLLRLL-NH2] | particle size, HIST | INS.
Ac-LRLLPAHLALHAPLLRLL-NH2 [Peptide 9, Ac-LRLLPAHLALHAPLLRLL-NH2] | particle size, HIST | 0*
Ac-RRLLLAPLALPALLLRRL-NH2 [Peptide 4, Ac-RRLLLAPLALPALLLRRL-NH2] | particle size, HIST | 0*
Ac-LRLLAAHLALHAALLRLL-NH2 [Peptide 10, Ac-LRLLAAHLALHAALLRLL-NH2] | particle size, HIST | INS.
H-K(Ac)RRLLHAHLALHAHLLRRLK(Ac)-NH2 [Peptide 16′, K(Ac)RRLLHAHLALHAHLLRRLK(Ac)-NH2] | particle size, HIST | 0*
Ac-LRLLHAPLALPAHLLRLL-NH2 [Peptide 7, Ac-LRLLHAPLALPAHLLRLL-NH2] | particle size, HIST | 0*
Ac-RRLLPAPLALPAPLLRRL-NH2 [Peptide 1, Ac-RRLLPAPLALPAPLLRRL-NH2] | particle size, HIST | 0*
Ac-RRLLHAKLALKAHLLRRL-NH2 [Peptide 17, Ac-RRLLHAKLALKAHLLRRL-NH2] | particle size, HIST | 0*
Ac-RRLLAAPLALPAALLRRL-NH2 [Peptide 5, Ac-RRLLAAPLALPAALLRRL-NH2] | particle size, HIST | 0*
Ac-RRLLAAHLALHAALLRRL-NH2 [Peptide 15, Ac-RRLLAAHLALHAALLRRL-NH2] | particle size, HIST | 0*
Ac-RRLLHAHLALHAHLLRRL-NH2 [Peptide 16, Ac-RRLLHAHLALHAHLLRRL-NH2] | particle size, HIST | 0*

* * *

assay: Particle size measurement (dynamic light scattering) and visual solubility in aqueous solutions; conditions: 2 mg net mass/ml in 28 mM L-Histidine buffer, pH 5.9 to 6.4; also: unit not given here
Marks after values point to notes of the source that are not given here.
value_type: particle size, HIST

substance | value_type | result
Ac-RRLLHALLALLAHLLRRL-NH2 [Peptide 11, Ac-RRLLHALLALLAHLLRRL-NH2] | particle size, HIST | 0*
Ac-RRLLHAALALAAHLLRRL-NH2 [Peptide 13, Ac-RRLLHAALALAAHLLRRL-NH2] | particle size, HIST | 0*
Ac-RRLLPAHLALHAPLLRRL-NH2 [Peptide 14, Ac-RRLLPAHLALHAPLLRRL-NH2] | particle size, HIST | 0*
Ac-RRLLHAPLALPAHLLRRL-NH2 [Peptide 12, Ac-RRLLHAPLALPAHLLRRL-NH2] | particle size, HIST | 0*
Ac-RRLLKAKLALKAKLLRRL-NH2 [Peptide 18, Ac-RRLLKAKLALKAKLLRRL-NH2] | particle size, HIST | 0*
Ac-RRLLPALLALLAPLLRRL-NH2 [Peptide 3, Ac-RRLLPALLALLAPLLRRL-NH2] | particle size, HIST | 0*
Ac-RRLLPAALALAAPLLRRL-NH2 [Peptide 2, Ac-RRLLPAALALAAPLLRRL-NH2] | particle size, HIST | 0*
Ac-RRLKKAKLKLKAKKLRRL-NH2 [Peptide 19, Ac-RRLKKAKLKLKAKKLRRL-NH2] | particle size, HIST | 0*
